Tested on: A498 renal
assay_comment: NCI tumour cell line growth inhibition, 48 h
measured_parameter: TGI (µM)
Supply the numeric figure in µM, leaving out any unit text.

The molecule "COc1cc2c(cc1OCCCN1CCN(C)CC1)N=C[C@@H]1CCCN1C2=O" showed TGI equal to 5.75

// recorded TGI for "Cn1cc(-c2csc(-c3c[nH]c4ccccc34)n2)c2cnccc21" : 3.58

TGI recorded for this molecule, COc1cc([C@@H]2c3cc4c(cc3[C@@H](OC3OC5CO[C@@H](c6cccs6)OC5C(O)C3O)[C@H]3COC(=O)[C@H]23)OCO4)cc(OC)c1O (stereo partly drawn) , is 3.51

Reported TGI of Nc1nc(Cl)c(N=Nc2ccc(Cl)cc2)c(NCC2(CO)CCC(CCc3ccccc3)C2)n1 (stereo not drawn) : 27.3

----------
Tested on: DMS 273 small cell lung
assay_comment: NCI tumour cell line growth inhibition, 48 h
Kindly supply the reported TGI values for the records listed here.

The compound listed as Cc1ccc(C2CC(c3cccc([N+](=O)[O-])c3)=Nc3ccccc3S2)cc1 (stereo unspecified) shows TGI equal to > 100 µM

Given item CC(=O)OCC(OC(C)=O)C(OC(C)=O)C(OC(C)=O)C(=O)CNn1c(-c2ccc(C)cc2)nc2ccccc2c1=O (stereo unspecified) , the value recorded as its TGI is > 100 µM

Looking up "CCNc1cnc2c(n1)c(=O)n(C)c(=O)n2C" , I see its TGI listed as > 100 µM

Given item "O=C1C(c2ccc([N+](=O)[O-])cc2)=C(Cl)C(=O)c2c(O)cccc21" , the value recorded as its TGI is > 100 µM

Reported TGI for CC(C)N(C(C)C)[PH+]1O[PH+](N(C(C)C)C(C)C)O[PH+](N(C(C)C)C(C)C)O[PH+](N(C(C)C)C(C)C)O1.[C-]#[O+].[C-]#[O+].[C-]#[O+].[C-]#[O+].[C-]#[O+].[C-]#[O+].[C-]#[O+].[C-]#[O+].[Mo].[Mo] (stereo unspecified) was > 100 µM

compound "Cn1cnc([N+](=O)[O-])c1Sc1nc2ccccc2s1" , TGI observed: 2.71 µM

The value of TGI measured for the compound O=C1C2c3[nH]c4ccccc4c3C3CCCCC3C2C(=O)N1c1ccccc1 (stereo unspecified) turned out to be > 100 µM

Consider "CC(=O)N/C=C/c1cc(O)ccc1O" . Its measured TGI is > 100 µM

Please fill in: TGI reported for COc1cc(C2Oc3cc(-c4oc5cc(O)cc(O)c5c(=O)c4O)ccc3OC2CO)ccc1O (stereo unspecified) = 31.2 µM

Documented TGI of "C=[CH][Sn]([CH]=C)([S]c1cccc2cccnc12)[S]c1cccc2cccnc12" : 0.486 µM

Lab book: TGI of "COc1ccc2c(c1)[n+](=O)c(C(=O)CC(=O)C(=O)Nc1cccc(Cl)c1C)c(C)n2[O-]" noted as > 100 µM

TGI reading for Nc1ncnc2c1ncn2C1CC(O)C(CO)O1 (stereo unspecified) : > 100 µM

Value of TGI reported for the compound "COc1ccc(/C(Cl)=C(\CN(C)C)c2ccc(OC)c(OC)c2)cc1OC" is > 100 µM

Please fill in: TGI reported for "COC[C@@H]1[C@H]2OC(C)(C)O[C@H]2C(=O)N1C(=O)c1ccc(OC)cc1" = > 100 µM

Summary for this compound, "C[C@@H](O)CCC(=O)c1ccoc1" : TGI is > 100 µM

Data point: CC(=O)NC1C(OCc2ccccc2)OC(CO)C(O)C1OC(C)C(=O)NC(C)C(=O)N[C@@H](CCC(=O)OCCCNC1c2ccccc2Nc2cccc([N+](=O)[O-])c21)C(N)=O (stereo partly specified) ; TGI = < 0.0106 µM

Recorded values, source PubChem BioAssay (NCI).
